experiment: Volume of distribution at steady state in ICR mouse at 20 mg/kg,iv administration measured upto 6 hrs by LC-MS/MS analysis; assay type: ADME, organism-based; conditions: in vivo, read-out: Vdss
Listed compounds paired with reported Vd
Measurement type: Vd (L/kg)

- Cc1ccc(S(=O)(=O)O)cc1.Nc1nc(/C(=N/OC(C(=O)O)C2CCC(F)(F)CC2)C(=O)N[C@@H]2C(=O)N3C(C(=O)O)=C(CSCCNC(=O)c4ccc(O)c(O)c4Cl)CS[C@H]23)cs1 (stereo not given in full): 0.402
- CC(C)(O/N=C(\C(=O)N[C@@H]1C(=O)N2C(C(=O)[O-])=C(C[N+]3(CCNC(=O)c4ccc(O)c(O)c4Cl)CCCC3)CS[C@H]12)c1csc(N)n1)C(=O)O.O=C(O)C(F)(F)F: 0.663
- CC1CCC(C(O/N=C(\C(=O)N[C@@H]2C(=O)N3C(C(=O)O)=C(CSCCNC(=O)c4ccc(O)c(O)c4Cl)CS[C@H]23)c2csc(N)n2)C(=O)O)CC1.O=C(O)C(F)(F)F (stereo not given in full): 2.37
- Nc1nc(/C(=N/OC(C(=O)O)C2CCC(F)(F)CC2)C(=O)N[C@@H]2C(=O)N3C(C(=O)O)=C(CSCCNC(=O)c4ccc(O)c(O)c4Cl)CS[C@H]23)c(Br)s1.O=C(O)C(F)(F)F (stereo not given in full): 9.48
- CC(C)(O/N=C(\C(=O)N[C@@H]1C(=O)N2C(C(=O)[O-])=C(C[N+]3(CCNC(=O)c4ccc(O)c(O)c4Cl)CCCC3)CS[C@H]12)c1csc(N)n1)C(=O)[O-].[Na+]: 0.488
